organism: Rattus norvegicus; test: Open TG-GATES - Regimen: Single; type: toxicity, organism-based, Sprague-Dawley; parameters: regimen Single, gender Male, age 6 weeks; conditions: in vivo, po, 0 mg/kg, 9 h, tissue Blood, route gavage, dose level Control
Listing of entries alongside the reported Plat.
measuredEndpoint: Plat (x10_4/uL)

compound="CS(=O)(=O)Nc1ccc([N+](=O)[O-])cc1Oc1ccccc1 [NIMESULIDE]" measurement=110.8
compound="COc1ccc(Cl)cc1C(=O)NCCc1ccc(S(=O)(=O)NC(=O)NC2CCCCC2)cc1 [GLYBURIDE]" measurement=133.8
compound=Cc1cccc(Nc2cc(Cl)nc(SCC(=O)O)n2)c1C measurement=117.6

###

Listing of entries alongside the reported CRE.
species: Rattus norvegicus; assay: Open TG-GATES - Regimen: Single; format: toxicity, organism-based, Sprague-Dawley; set-up: regimen Single, gender Male, age 6 weeks; details: in vivo, po, 0 mg/kg, 9 h, tissue Plasma, route gavage, dose level Control
measuredEndpoint: CRE (mg/dL)

molecule="Cc1cccc(Nc2cc(Cl)nc(SCC(=O)O)n2)c1C [PIRINIXIC ACID]" measurement=0.2
molecule="Cc1cnc(NC(=O)C2=C(O)c3ccccc3S(=O)(=O)N2C)s1 [MELOXICAM]" measurement=0.4
molecule="S=C=Nc1cccc2ccccc12 [1-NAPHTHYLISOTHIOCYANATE]" measurement=0.4
molecule="CNCCC(Oc1ccc(C(F)(F)F)cc1)c1ccccc1.Cl (stereo unspecified) [FLUOXETINE HYDROCHLORIDE]" measurement=0.4
molecule="COc1ccc(O)c(C(C)(C)C)c1.COc1ccc(O)cc1C(C)(C)C [BUTYLATED HYDROXYANISOLE]" measurement=0.2
molecule="COc1ccc(Cl)cc1C(=O)NCCc1ccc(S(=O)(=O)NC(=O)NC2CCCCC2)cc1 [GLYBURIDE]" measurement=0.4

###

species on record: Rattus norvegicus; assay: Open TG-GATES - Regimen: Single; assay type: toxicity, organism-based, Sprague-Dawley; parameters: regimen Single, gender Male, age 6 weeks; details: in vivo, po, 0 mg/kg, 6 h, tissue Blood, route gavage, dose level Control
Listing of entries alongside the reported Ret.
measuredEndpoint: Ret

compound="COc1ccc(Cl)cc1C(=O)NCCc1ccc(S(=O)(=O)NC(=O)NC2CCCCC2)cc1 [GLYBURIDE]" measuredendpoint=Ret measurement=7.8%
compound="Cc1cccc(Nc2cc(Cl)nc(SCC(=O)O)n2)c1C [PIRINIXIC ACID]" measuredendpoint=Ret measurement=7.6%
compound="C=CCO [ALLYL ALCOHOL]" measuredendpoint=Ret measurement=7.3%
compound="CS(=O)(=O)Nc1ccc([N+](=O)[O-])cc1Oc1ccccc1 [NIMESULIDE]" measuredendpoint=Ret measurement=11.4%
compound="O=C1NC(=O)C(c2ccccc2)(c2ccccc2)N1 [PHENYTOIN]" measuredendpoint=Ret measurement=7.5%

###

species: Rattus norvegicus; experiment: Open TG-GATES - Regimen: Daily Repeat; type: toxicity, organism-based, Sprague-Dawley; parameters: regimen Daily Repeat, gender Male, age 6 weeks; conditions: in vivo, po, 0 mg/kg, […], tissue Blood, route gavage, dose level Control, time 14 day
Listing of entries alongside the reported Bas.
measuredEndpoint: Bas

compound="CS(=O)(=O)Nc1ccc([N+](=O)[O-])cc1Oc1ccccc1 [NIMESULIDE]" measurement=0%
compound=Cc1cccc(Nc2cc(Cl)nc(SCC(=O)O)n2)c1C measurement=0%
compound="O=P1(N(CCCl)CCCl)NCCCO1 (stereo unspecified) [CYCLOPHOSPHAMIDE ANHYDROUS]" measurement=0%
compound="COc1ccc(Cl)cc1C(=O)NCCc1ccc(S(=O)(=O)NC(=O)NC2CCCCC2)cc1 [GLYBURIDE]" measurement=0%
compound=C=CCO measurement=0%
compound=O=C1NC(=O)C(c2ccccc2)(c2ccccc2)N1 measurement=0%
compound=O=C1CN(/N=C/c2ccc(-c3ccc([N+](=O)[O-])cc3)o2)C(O)=N1 measurement=0%
compound=Cn1c(=O)c2c(ncn2C)n(C)c1=O measurement=0%
compound=Cn1cnc([N+](=O)[O-])c1Sc1ncnc2nc[nH]c12 measurement=0%
compound="COc1ccc(O)c(C(C)(C)C)c1.COc1ccc(O)cc1C(C)(C)C [BUTYLATED HYDROXYANISOLE]" measurement=0.3%
compound=Cc1cnc(NC(=O)C2=C(O)c3ccccc3S(=O)(=O)N2C)s1 measurement=1%
